- System: SARS-COV-2
- TEST_PROTOCOL: microbe, parasite or virus in culture
- Format: cell-based
- CONDITION_CONTEXT: Severe acute respiratory syndrome coronavirus 2; Vero cells, 24 hours infection; read-out: SARS-COV-2 inhibition (IC50)
Please use 1 for IC50 under 6 µM and -1 for everything else, ties included.

Some entries whose results are on file:
molecule=CCN(c1ccc(-c2c3c(cc4cc(OC)c(OC)cc24)COC3=O)cn1)C1CCCC1 discrete_label=1
molecule=COc1cc2cc3c(c(-c4cc(C)nc5c(C(F)(F)F)cccc45)c2cc1OC)C(=O)OC3 discrete_label=-1
molecule=COc1cc2cc3c(c(-c4cnccn4)c2cc1OC)C(=O)OC3 discrete_label=-1
molecule=COc1cc2cc3c(c(-c4cnc(OCCN5CCOCC5)nc4)c2cc1OC)C(=O)OC3 discrete_label=-1
molecule=COc1cc2cc3c(c(-c4cnc(N[C@@H](C)c5ccc(F)cc5)nc4)c2cc1OC)C(=O)OC3 discrete_label=-1
molecule=COc1cc2cc3c(c(-c4cnc(N5CC(C)(C)OC(C)(C)C5)nc4)c2cc1OC)C(=O)OC3 discrete_label=-1
molecule=CCN(CC)c1ncc(-c2c3c(cc4cc(OC)c(OC)cc24)COC3=O)cn1 discrete_label=1
molecule=CCCOCCN(CCC)c1ncc(-c2c3c(cc4cc(OC)c(OC)cc24)COC3=O)cn1 discrete_label=-1
molecule=COCCOc1cncc(-c2c3c(cc4cc(OC)c(OC)cc24)COC3=O)c1 discrete_label=-1
molecule=COc1cc2cc3c(c(-c4cc5c(cc4OC(=O)OC(C)C)OCO5)c2cc1OC)C(=O)OC3 discrete_label=-1

Prompt: Lab log: compare recorded IC50 with 6 µM; is it strictly lower for COc1cc2cc3c(c(-c4ccc5oc6ccccc6c5c4)c2cc1OC)C(=O)OC3 ?
Response: -1

Prompt: For this molecule, is IC50 lower than 6 µM? COc1cc2cc3c(c(-c4cnc(N5CCCC(C)C5)nc4)c2cc1OC)C(=O)OC3 (centres unmarked)
Response: 1

Prompt: Is IC50 of COc1cc2cc3c(c(-c4cnc(N(C)CC5CC5)nc4)c2cc1OC)C(=O)OC3 strictly below 6 µM?
Response: 1

Prompt: # check: IC50 < 6 µM for COc1cc2cc3c(c(-c4ccc(N(C)c5nnc(C)s5)nc4)c2cc1OC)C(=O)OC3
Response: -1

Prompt: # check: IC50 < 6 µM for CC[C@@H]1CCCCN1c1ncc(-c2c3c(cc4cc(OC)c(OC)cc24)COC3=O)cn1
Response: 1

Prompt: Could you please tell me whether IC50 recorded for COc1cc2cc3c(c(-c4ccc5nc(C)cc(O)c5c4)c2cc1OC)C(=O)OC3 is less than 6 µM?
Response: -1
